Reference source: patent US6455593B1

# Test system: p. falciparum D6
# protocol: Parasite growth by 3H-hypoxanthine uptake in infected erythrocytes
# Assay type: cell-based
# particulars: Plasmodium falciparum, D6, Erythrocyte; 24 hr after RBC infection, 3H-hypoxanthine uptake; read-out: inhibitory concentrations (IC50), strain D6
Quick reference for pIC50 among some compounds
To interpret pIC50, take it as minus log10 of a concentration measured in moles per litre.

C[C@@]1(CO)[C@H](O)CC[C@@]2(C)[C@H]1CC[C@H]1C[C@@H]3C[C@@]12CC[C@]3(O)CO [Aph, aphidicolin] = 6.40

Now look at this one.
Asked: Look at this compound and give its reported pIC50. NC(=O)NO [HU, hydroxyurea]
Given back: 3.76
